- Test system: 379773-124-R-J2-PDC spheroid viability;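 note: spheroids exposed to drugs for seven days before readout; percent viability relative to DMSO vehicle control taken as 100%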
- procedure summary: Anticancer human tumor 379773-124-R-J2-PDC patient-derived endometrial carcinoma cell line growth inhibition [POLQ]; active = viability on the fitted dose curve at most 10% of control; inactive = the rest
- measurement parameters: second compound 1 µM; first compound 0.1 µM; spheroids with HUVEC and MSC
Select the matching outcome among yes (1) for active, no (0) for inactive

Reference set (4 entries):
molecule	class assignment
CC[C@@]1(O)C(=O)OCc2c1cc1n(c2=O)Cc2cc3c(CN(C)C)c(O)ccc3nc2-1 + Cc1cccc(N(C)C(=O)C2C(O)CCN2c2nc(C)cc(C(F)(F)F)c2C#N)c1	no (0)
CC[C@@]1(O)C(=O)OCc2c1cc1n(c2=O)Cc2cc3c(CN(C)C)c(O)ccc3nc2-1 + COC1C(OC(N)=O)C(O)C(Oc2ccc3c(O)c(NC(=O)c4ccc(O)c(CC=C(C)C)c4)c(=O)oc3c2C)OC1(C)C	yes (1)
O=c1[nH]cc(F)c(=O)[nH]1 + Nc1ccc(C#CCN(C(=O)Cc2ncc(C(F)(F)F)cc2C(F)(F)F)c2ccc(F)cc2)nn1	no (0)
COc1cccc(OCCCN)c1-c1cc(Nc2cnc(C#N)cn2)n[nH]1 + Nc1ccc(C#CCN(C(=O)Cc2ncc(C(F)(F)F)cc2C(F)(F)F)c2ccc(F)cc2)nn1	yes (1)

Look up the recorded call for CNCc1ccc(-c2[nH]c3cc(F)cc4c3c2CCNC4=O)cc1 + Nc1ccc(C#CCN(C(=O)Cc2ncc(C(F)(F)F)cc2C(F)(F)F)c2ccc(F)cc2)nn1 in this test.
no (0)

Look up the recorded call for CC1COCCN1c1cc(C2(O)CC3CCC(C2)O3)c2cnn(-c3ccn[nH]3)c2n1 (stereo unspecified) + Nc1ccc(C#CCN(C(=O)Cc2ncc(C(F)(F)F)cc2C(F)(F)F)c2ccc(F)cc2)nn1 in this test.
no (0)

Look up the recorded call for CNCc1ccc(-c2[nH]c3cc(F)cc4c3c2CCNC4=O)cc1 + Cc1cccc(N(C)C(=O)C2C(O)CCN2c2nc(C)cc(C(F)(F)F)c2C#N)c1 in this test.
no (0)

Look up the recorded call for CCc1c2c(nc3ccc(O)cc13)-c1cc3c(c(=O)n1C2)COC(=O)[C@]3(O)CC + COC1C(OC(N)=O)C(O)C(Oc2ccc3c(O)c(NC(=O)c4ccc(O)c(CC=C(C)C)c4)c(=O)oc3c2C)OC1(C)C in this test.
yes (1)

Look up the recorded call for O=C(c1cc(Cc2n[nH]c(=O)c3ccccc23)ccc1F)N1CCN(C(=O)C2CC2)CC1 + Cc1cccc(N(C)C(=O)C2C(O)CCN2c2nc(C)cc(C(F)(F)F)c2C#N)c1 in this test.
no (0)

Look up the recorded call for CCCS(=O)(=O)Nc1ccc(F)c(C(=O)c2c[nH]c3ncc(-c4ccc(Cl)cc4)cc23)c1F + COC1C(OC(N)=O)C(O)C(Oc2ccc3c(O)c(NC(=O)c4ccc(O)c(CC=C(C)C)c4)c(=O)oc3c2C)OC1(C)C in this test.
no (0)

Look up the recorded call for Nc1ccn(C2OC(CO)C(O)C2(F)F)c(=O)n1 (stereo unspecified) + Cc1cccc(N(C)C(=O)C2C(O)CCN2c2nc(C)cc(C(F)(F)F)c2C#N)c1 in this test.
yes (1)

Numbers sourced from PubChem BioAssay AID1963848.
